- METHOD_SUMMARY: NCI Yeast Anticancer Drug Screen. Data for the cln2 rad14 strain (AID 165);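 further: 0% = growth equal to vehicle treated cultures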
- EXPERIMENTAL_PARAMETERS: S. cerevisiae cln2 rad14 strain, at 50.0 µM, hits give high values
This is part of a sample that, as a whole, favours compounds with a hit. Of some 79,000 tested, about 15% had one in any assay.
Here the recorded growth inhibition is given for each entry.
Field: numeric (%). Do not append units.

[[record]]
molecule = "COc1ccc(/C=C/C2=CC(=O)CC(/C=C/c3ccc(OC)c(OC)c3)C2)cc1OC (stereo not given)"
recorded_result = 49.6

[[record]]
molecule = "COc1ccc(CC2COC(=O)C2Cc2ccc(OC)c(OC)c2)cc1OC (stereo not given)"
recorded_result = -11.6

[[record]]
molecule = "O=[N+]([O-])c1ccc2c(c1)/C(=N/O)CCC2"
recorded_result = -86.4

[[record]]
molecule = "COC1OCC(NC(=O)CNC(=O)CCCCCCCCCCCCC(C)C)C(O)C1O (stereo not given)"
recorded_result = 32.5

[[record]]
molecule = "O=C1OC(=O)C2C1C1c3ccccc3C2(Br)c2ccccc21 (stereo not given)"
recorded_result = -6.05


input: Which growth inhibition is reported for this molecule? Clc1ccc(Nc2nc3ccccc3nc2-c2cccs2)cc1Cl
output: -7.5

input: Follow-up item: CC(C)CCOC(=O)COc1ccc(Cl)cc1Cl
output: 19.2

input: Follow-up item: CCc1nc(Nc2cccc(Cl)c2)c2cnn(-c3ccccc3)c2n1
output: -48.4

input: Follow-up item: NC(N)=NS(=O)(=O)c1ccc(Nc2c3ccccc3nc3c(C(=O)NNCCO)cccc23)cc1
output: -7.7

input: Follow-up item: CCOS(=O)(=O)c1ccc(F)c([N+](=O)[O-])c1
output: -47

input: Follow-up item: O=P1(c2ccccc2)OCC2=C(c3ccccc3)CC2=C1c1ccccc1 (stereo not given)
output: 10.1

----------
Here the recorded growth inhibition is given for each entry.
- METHOD_SUMMARY: NCI Yeast Anticancer Drug Screen. Data for the mlh1 rad18 strain (AID 175)
- EXPERIMENTAL_PARAMETERS: S. cerevisiae mlh1 rad18 strain growth inhibition; at 50.0 µM; hits give high values
This is part of a sample that, as a whole, favours compounds with a hit. Of some 79,000 tested, about 15% had one in any assay.
Field: numeric (%). Do not append units.

[[record]]
compound = "O=S(=O)(O)CCCCO"
readout = "growth inhibition"
recorded_result = 10.2

[[record]]
compound = "COC(=O)C(=O)C(C(=O)C(=O)Nc1ccccc1[N+](=O)[O-])c1nc2ccc([N+](=O)[O-])cc2[nH]c1=O (stereo unspecified)"
readout = "growth inhibition"
recorded_result = 20.7

[[record]]
compound = "Cc1ccc(S(=O)(=O)C2=c3nc4ccccc4cc3=C3C(=O)c4ccccc4C(=O)C32)cc1 (stereo unspecified)"
readout = "growth inhibition"
recorded_result = -3.7

[[record]]
compound = "Cc1ccccc1C(=O)c1ccc2ccccc2c1"
readout = "growth inhibition"
recorded_result = 25.4

[[record]]
compound = "COc1ccc(OC)c(NC(=O)Nc2cc(Cl)ccc2C)c1"
readout = "growth inhibition"
recorded_result = 4.8

[[record]]
compound = "CSc1nc(NC2OC(CO)C(O)C(O)C2O)c(I)c(=O)n1C (stereo unspecified)"
readout = "growth inhibition"
recorded_result = 27.7


input: Which growth inhibition is reported for this compound? CC(=O)c1ccc(CCCCc2ccc([N+](=O)[O-])cc2)cc1
output: -32

input: Follow-up item: C=C(CN(C)C)C(=O)c1ccc(OC)cc1
output: 27.2

input: Follow-up item: S=C(N1CCN(c2ccc(Cl)c(Cl)c2)CC1)N1CCN(c2ccc(Cl)c(Cl)c2)CC1
output: 20.2

input: Follow-up item: O=C(N/N=C/c1ccc(Br)cc1)N/N=C/c1ccc(Br)cc1
output: -12.8

input: Follow-up item: CCCCS(=O)(=O)CCCC
output: 22.9

input: Follow-up item: N#C/C(=C\NC(=S)Nc1ccc(S(=O)(=O)Nc2nccs2)cc1)C(=O)c1ccc2ccccc2c1
output: 16.4

----------
- METHOD_SUMMARY: NCI Yeast Anticancer Drug Screen. Data for the bub3 strain (AID 167)
- EXPERIMENTAL_PARAMETERS: S. cerevisiae bub3 mutant strain, at 50.0 µM, hits give high values
About 79,000 compounds went through this panel and 15% of them were active in at least one assay; those are over-represented in the sample as a whole.
READOUT: growth inhibition (%)
Field: numeric (%). Do not append units.

Sample answers from the record:
[[record]]
compound = "O=C(CCn1[nH]c(=O)c(Cl)c(Cl)c1=O)NOCCCc1ccccc1"
recorded_result = 4.3

[[record]]
compound = "CC1(C)C[C@H](OC2CCCCO2)[C@H]2O[C@@]2(C)C1 (stereo not given in full)"
recorded_result = 18.4

[[record]]
compound = "O=S(=O)(NC/C=C/c1ccccc1)c1ccccc1"
recorded_result = 4.65

[[record]]
compound = "c1ccc2cc(C3OCCCO3)ccc2c1"
recorded_result = -2.45

[[record]]
compound = "CSc1cc(=O)[nH]c(=O)[nH]1"
recorded_result = 3.8

[[record]]
compound = "Cc1ccc(NC(=O)CC/C(CC(=O)C(C)(C)C)=N/NC(=O)C(N)=O)cc1C"
recorded_result = 8.55


input: Which growth inhibition is reported for this compound? CCOc1ccccc1NC(=O)C1=C(C)NC(C)=C(C(=O)Nc2ccccc2OCC)C1c1ccc(NC(C)=O)cc1
output: -22.2

----------
- METHOD_SUMMARY: NCI Yeast Anticancer Drug Screen. Data for the cln2 rad14 strain (AID 165);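 further: 0% = growth equal to vehicle treated cultures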
- EXPERIMENTAL_PARAMETERS: S. cerevisiae cln2 rad14 strain, at 50.0 µM, hits give high values
About 79,000 compounds went through this panel and 15% of them were active in at least one assay; those are over-represented in the sample as a whole. Calls of active or inactive are those of the source. No stated cut-off is given here; in the data, active means growth inhibition above about 70%; inactive means the rest.
Here the recorded growth inhibition is given for each entry.

input: Which growth inhibition is reported for this compound? O=C1c2ccccc2C(=O)c2c(O)cc([N+](=O)[O-])cc21
output: 6.05% (inactive)

input: Follow-up item: CC1(C)CC(=O)C2=C(C1)NC1=C(C2)C(=O)CC(C)(C)C1
output: 19.9% (inactive)

input: Follow-up item: CCOC(=O)C1C(=O)N(O)c2cnccc21 (centres undefined)
output: -12.2% (inactive)

input: Follow-up item: O=c1c(Cl)c(N2CCCCC2)cnn1-c1ccccc1
output: 7.6% (inactive)

----------
- METHOD_SUMMARY: NCI Yeast Anticancer Drug Screen. Data for the mlh1 rad18 strain (AID 175)
- EXPERIMENTAL_PARAMETERS: S. cerevisiae mlh1 rad18 strain growth inhibition; at 50.0 µM
About 79,000 compounds went through this panel and 15% of them were active in at least one assay; those are over-represented in the sample as a whole. Active and inactive are the calls of the source. Rule as the data show it: active = growth inhibition above about 70%; inactive = the rest.
Outcome (select one): active, inactive

[[record]]
molecule = "O=C1OC(c2ccccc2)=CC1(Cc1ccccc1)Cc1ccccc1"
label_value = "inactive"

[[record]]
molecule = "Cc1cc(OC(=O)c2ccccc2)cc(C)c1OC(=O)c1ccccc1"
label_value = "inactive"


input: Could you please tell me the result logged for Cn1cnc2ncnc(NCc3ccc(Cl)c(Cl)c3)c21 in this assay?
output: inactive

input: Follow-up item: CCSC1(SCC)C2(CCCCC2)C(=O)C12CCCCC2
output: active

input: Follow-up item: c1ccc(C(=NN(CCCCN(N=C(c2ccccc2)c2ccccc2)c2ccccc2)c2ccccc2)c2ccccc2)cc1
output: inactive

input: Follow-up item: CCCCCCC(=O)OC[n+]1ccc2c(C)c3[nH]c4ccc(OC)cc4c3c(C)c2c1
output: active

input: Follow-up item: CCCCCCc1cc(C(=O)N/N=C/c2ccccc2O)c2ccccc2n1
output: inactive

input: Follow-up item: O=c1[nH]cc(CO)c(=O)[nH]1
output: inactive

input: Follow-up item: CCCCCCCN1C(=O)C(O)(c2ccc(C3(O)C(=O)N(CCCCCCC)c4ccccc43)s2)c2ccccc21 (configuration not stated)
output: inactive

----------
- METHOD_SUMMARY: NCI Yeast Anticancer Drug Screen. Data for the sgs1 mgt1 strain (AID 161);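 further: 0% = growth of cultures given vehicle only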
- EXPERIMENTAL_PARAMETERS: S. cerevisiae sgs1 mgt1 strain, at 50.0 µM
This is part of a sample that, as a whole, favours compounds with a hit. Of some 79,000 tested, about 15% had one in any assay. Activity calls are given as the source filed them. Rule as the data show it: active = growth inhibition above about 70%; inactive = the rest.
Outcome (select one): yes = active, no = inactive

[[record]]
molecule = "COC1=CC(O)(CC(N)=O)c2ccccc2C1=O (centres undefined)"
label_value = "no"


input: Could you please tell me the result logged for COC(=O)C1(C(C(=O)c2ccccc2)c2ccccc2)NC(=S)NC(=O)C1C#N (centres undefined) in this assay?
output: no

input: Follow-up item: CCOC(=O)c1[nH]c(CC(=O)O)c(C(=O)O)c1C
output: no
